- protocol-description: NCI Yeast Anticancer Drug Screen. Data for the mlh1 rad18 strain (AID 175)
- settings: S. cerevisiae mlh1 rad18 strain growth inhibition; at 50.0 µM; hits give high values
Compounds without any hit were thinned out: in the full panel of roughly 79,000, 15% have a hit.
measured-endpoint: growth inhibition (%)
Answers are plain numbers, in %.

Reference set, count: 5
>>> observed("O=c1cc(O)nc2cn[nH]n12")
1.6
>>> observed("CC(=O)CC(OC(C)=O)C1=CCC2C(CC1C)OC(=O)C2C (stereo not drawn)")
-56.6
>>> observed("COc1ccc(C2c3cc4c(cc3OC(C)(OC)C2C)OCO4)c(OC)c1OC (stereo not drawn)")
22.1
>>> observed("CNCC(SC)c1ccc(O)c(O)c1 (stereo not drawn)")
-2.6
>>> observed("CCCC(C)(C)O")
-3.65

Please state, for each entry, its recorded growth inhibition.
1. NC(CCC(=O)O)C(=O)NC(Cc1c[nH]c2ccccc12)C(=O)O (stereo not drawn)
2. Cc1cc(Cl)c(Cl)cc1NC(=O)c1ccccc1Cl
3. C[N+]1(CCC[N+]2(C)CCC3(CCCCC3)CC2)CCOCC1
4. CC(=O)NC1c2ccccc2-c2ccccc21

RESULT:
-24.6
-5.25
16.8
3.8

Please state, for each entry, its recorded growth inhibition.
1. C=CCSc1nc2ccc(NCn3c(=S)sc4cc([N+](=O)[O-])ccc43)cc2s1
2. CC(=O)C1CC(CCC2([N+](=O)[O-])CCC(C)(O)C(C(C)=O)C2)([N+](=O)[O-])CCC1(C)O (stereo not drawn)
3. ClC1=C(Cl)C2(Cl)C3C(c4ccc(I)cc4C4C3C3(Cl)C(Cl)=C(Cl)C4(Cl)C3(Cl)Cl)C1(Cl)C2(Cl)Cl (stereo not drawn)
4. CON(C)c1nc(N(C)OC)nc(N(C)OC)n1
5. CSC1NN=C(CCC(=O)Nc2ccc(C)cc2)O1 (stereo not drawn)
6. NC(=Nc1ccc([N+](=O)[O-])cc1)c1ccccc1
7. CC1C/C(=C\c2ccccc2)C(=O)/C1=C/c1ccccc1 (stereo not drawn)

RESULT:
31.9
20.6
16.9
-12.5
12.9
9.65
-15.9

Please state, for each entry, its recorded growth inhibition.
1. CC1(C)Oc2ccc3ccccc3c2C(c2ccc(O)cc2)=C1c1ccccc1
2. COc1ccc(C2SCC(=O)N2NC(=O)c2ccc(NC(C)=O)cc2)cc1 (stereo not drawn)

RESULT:
-20.6
-61.5

Please state, for each entry, its recorded growth inhibition.
1. O=P(CCc1ccccc1)(OCCCl)OCCCl
2. Cc1cc(C)nc(Sc2c([N+](=O)[O-])ncn2C)n1
3. O=C(CN1CCOCC1)Nc1ccc(S(=O)(=O)c2ccc([N+](=O)[O-])cc2)cc1

RESULT:
1: -5; 2: -10.3; 3: 26.1

Please state, for each entry, its recorded growth inhibition.
1. CCOC(=O)c1oc2ccc([N+](=O)[O-])c3c2c1CCC3
2. Cc1nc(-n2nc(-c3ccccc3)cc2-c2ccccc2)sc1C(=O)CC(=O)C(=O)Nc1ccc(Cl)c(Cl)c1

RESULT:
1. -8.05
2. 24.8
